This collection of values is drawn from patent US5317021A.

Below, each of the compounds is paired with its reported IC50 value.
- test system: enkephalinase (Mus musculus, UniProt Q61391)
- Sequence (Q61391 whole entry): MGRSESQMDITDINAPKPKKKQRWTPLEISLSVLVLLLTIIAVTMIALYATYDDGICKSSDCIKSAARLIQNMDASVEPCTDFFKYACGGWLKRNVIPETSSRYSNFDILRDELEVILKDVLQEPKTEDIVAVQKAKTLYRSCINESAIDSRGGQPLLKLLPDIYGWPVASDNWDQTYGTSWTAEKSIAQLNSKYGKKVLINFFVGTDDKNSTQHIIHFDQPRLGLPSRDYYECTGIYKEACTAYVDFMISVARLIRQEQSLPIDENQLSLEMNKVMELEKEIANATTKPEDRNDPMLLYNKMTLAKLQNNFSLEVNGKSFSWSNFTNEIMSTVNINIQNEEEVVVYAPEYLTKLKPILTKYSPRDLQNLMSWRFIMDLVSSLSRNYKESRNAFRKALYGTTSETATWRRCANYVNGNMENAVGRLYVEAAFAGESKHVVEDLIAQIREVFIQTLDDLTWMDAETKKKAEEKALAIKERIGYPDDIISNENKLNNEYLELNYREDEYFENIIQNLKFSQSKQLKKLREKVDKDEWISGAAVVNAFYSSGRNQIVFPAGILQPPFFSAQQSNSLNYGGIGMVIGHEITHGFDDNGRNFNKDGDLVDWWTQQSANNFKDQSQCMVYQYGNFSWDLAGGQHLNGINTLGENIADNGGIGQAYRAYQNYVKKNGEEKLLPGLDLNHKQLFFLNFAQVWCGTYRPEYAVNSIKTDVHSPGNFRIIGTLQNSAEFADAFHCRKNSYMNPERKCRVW
Just so you know, I need the unit written after the number.

compound | test system | IC50
O=C(O)CC[C@H](NC(=O)C(CS)CC1CCCCC1)C(=O)Nc1ccccc1 (some centres unmarked) | enkephalinase (Mus musculus, UniProt Q61391) | 0.4 µM
O=C(CC[C@H](NC(=O)C(CS)Cc1ccccc1)C(=O)O)Nc1ccccc1 (some centres unmarked) | enkephalinase (Mus musculus, UniProt Q61391) | 0.068 µM
COC(=O)C[C@H](NC(=O)C(CS)Cc1ccccc1)C(=O)Nc1ccc2c(c1)C(c1ccccc1)=NCCN2C (some centres unmarked) | enkephalinase (Mus musculus, UniProt Q61391) | 0.15 µM
Cc1ccc(CC(CS)C(=O)N[C@@H](CCC(=O)O)C(=O)Nc2ccccc2)cc1 (some centres unmarked) | enkephalinase (Mus musculus, UniProt Q61391) | 0.071 µM
O=C(O)CC[C@H](NC(=O)C(CS)Cc1ccccc1)C(=O)Nc1cnccn1 (some centres unmarked) | enkephalinase (Mus musculus, UniProt Q61391) | 0.19 µM
O=C(C[C@H](NC(=O)C(CS)Cc1ccccc1)C(=O)O)Nc1ccc(C(F)(F)F)cc1 (some centres unmarked) | enkephalinase (Mus musculus, UniProt Q61391) | 0.021 µM
COc1ccc(CC(CS)C(=O)N[C@@H](CCC(=O)O)C(=O)Nc2ccccc2)cc1 (some centres unmarked) | enkephalinase (Mus musculus, UniProt Q61391) | 0.051 µM
O=C(O)CC[C@H](NC(=O)C(CS)Cc1ccccc1)C(=O)Nc1ccc(C(=O)O)cc1 (some centres unmarked) | enkephalinase (Mus musculus, UniProt Q61391) | 0.0036 µM

Look at this compound and give its reported IC50. COc1ccc(NC(=O)[C@H](CC(=O)O)NC(=O)C(CS)Cc2ccccc2)cc1 (single isomer, unassigned)
0.05 µM

// query IC50 value for entry O=C(O)CC[C@H](NC(=O)C(CS)Cc1ccccc1)C(=O)Nc1ccc(Cl)cn1 (some centres unmarked)
0.035 µM

Please report the recorded IC50 for CN(C)c1ccc(NC(=O)C[C@H](NC(=O)C(CS)Cc2ccccc2)C(=O)O)cc1 (some centres unmarked) .
0.024 µM
